Origin of values: ChEMBL document CHEMBL3779790

Test System: Tyrosine-protein phosphatase non-receptor type 1 (Homo sapiens)
Assay Details: Inhibition of human recombinant PTP-1B using IR5 insulin receptor residues as substrate at 30 uM after 30 mins by malachite green assay
Value Kind: inhibition (%)

| Molecule | Unit Text | inhibition |
| --- | --- | --- |
| C=C1CC[C@@H]2[C@](C)(CCC[C@]2(C)NC(N)=O)[C@H]1CC[C@H](C)C/C=N/OC(C)=O | % | 79.1 |
| C=C1CC[C@@H]2[C@](C)(CCC[C@]2(C)NC(N)=O)[C@H]1CC[C@H](C)C/C=N/O | % | 63.2 |
| C=C1CC[C@@H]2[C@](C)(CCC[C@]2(C)NC(N)=O)[C@H]1CC[C@H](C)CNC(N)=O | % | 67.2 |
| C=C1CC[C@@H]2[C@](C)(CCC[C@]2(C)NC(N)=O)[C@H]1CC[C@H](C)CCO | % | 79.2 |
| C=C1CC[C@@H]2[C@](C)(CCC[C@]2(C)C(=O)O)[C@H]1CC[C@H](C)CCO [IMBRICATOLIC ACID] | % | 67.2 |

---

Test System: Tyrosine-protein phosphatase non-receptor type 1 (Homo sapiens) (UniProt P18031)
Assay Details: Inhibition of human recombinant PTP-1B using IR5 insulin receptor residues as substrate at 10 uM after 30 mins by malachite green assay
Value Kind: inhibition (%)

Some solved entries appear below for comparison.
| Mol | inhibition [%] |
| --- | --- |
| C=C1CC[C@@H]2[C@](C)(CCC[C@]2(C)NC(N)=O)[C@H]1CC[C@H](C)C/C=N/OC(C)=O | 65.3 |
| C=C1CC[C@@H]2[C@](C)(CCC[C@]2(C)C(=O)O)[C@H]1CC[C@H](C)CCO | 59.2 |

[P] C=C1CC[C@@H]2[C@](C)(CCC[C@]2(C)NC(N)=O)[C@H]1CC[C@H](C)C/C=N/O
[Q] C=C1CC[C@@H]2[C@](C)(CCC[C@]2(C)N=C=O)[C@H]1CC[C@H](C)CCO
Lookup: Parameter check: reported inhibition is higher for which label, P or Q ? Please reply using the label of the selected record.
Found: P

---

Test System: Tyrosine-protein phosphatase non-receptor type 1 (Homo sapiens, UniProt P18031)
Assay Details: Inhibition of human recombinant PTP-1B using IR5 insulin receptor residues as substrate after 30 mins by malachite green assay
Value Kind: IC50 (µM)

| Mol | Unit Text | Assay Result |
| --- | --- | --- |
| C=C1CC[C@@H]2[C@](C)(CCC[C@]2(C)C(=O)O)[C@H]1CC[C@H](C)CCO | µM | 8.8 |
| C=C1CC[C@@H]2[C@](C)(CCC[C@]2(C)NC(N)=O)[C@H]1CC[C@H](C)C/C=N/O | µM | 7.8 |
| C=C1CC[C@@H]2[C@](C)(CCC[C@]2(C)NC(N)=O)[C@H]1CC[C@H](C)CCO | µM | 6.3 |
| C=C1CC[C@@H]2[C@](C)(CCC[C@]2(C)NC(N)=O)[C@H]1CC[C@H](C)CNC(N)=O | µM | 6.8 |
| C=C1CC[C@@H]2[C@](C)(CCC[C@]2(C)NC(N)=O)[C@H]1CC[C@H](C)C/C=N/OC(C)=O | µM | 7 |

---

Test System: Tyrosine-protein phosphatase non-receptor type 1 (Homo sapiens)
Sequence (whole entry): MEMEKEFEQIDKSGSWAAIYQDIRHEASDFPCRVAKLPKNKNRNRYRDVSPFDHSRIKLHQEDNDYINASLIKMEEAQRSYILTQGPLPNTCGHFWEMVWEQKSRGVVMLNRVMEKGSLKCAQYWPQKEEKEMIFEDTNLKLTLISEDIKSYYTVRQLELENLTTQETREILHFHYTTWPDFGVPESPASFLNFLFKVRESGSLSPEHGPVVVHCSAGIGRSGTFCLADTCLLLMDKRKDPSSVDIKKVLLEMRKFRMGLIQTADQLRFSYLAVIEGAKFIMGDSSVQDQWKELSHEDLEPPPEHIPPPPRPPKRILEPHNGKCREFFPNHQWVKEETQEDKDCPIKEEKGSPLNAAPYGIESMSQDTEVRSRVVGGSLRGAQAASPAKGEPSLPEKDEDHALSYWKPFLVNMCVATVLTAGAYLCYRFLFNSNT
Assay Details: Inhibition of human recombinant PTP-1B using IR5 insulin receptor residues as substrate at 1 uM after 30 mins by malachite green assay
Value Kind: inhibition (%)

[1] C=C1CC[C@@H]2[C@](C)(CCC[C@]2(C)NC(N)=O)[C@H]1CC[C@H](C)C/C=N/OC(C)=O
[2] C=C1CC[C@@H]2[C@](C)(CCC[C@]2(C)NC(N)=O)[C@H]1CC[C@H](C)C/C=N/O
Lookup: Of 1 and 2 , which shows the smaller inhibition value? Your choice should be expressed through its label.
Found: 2

[I] C=C1CC[C@@H]2[C@](C)(CCC[C@]2(C)C(=O)O)[C@H]1CC[C@H](C)CCO [IMBRICATOLIC ACID]
[II] C=C1CC[C@@H]2[C@](C)(CCC[C@]2(C)NC(N)=O)[C@H]1CC[C@H](C)CNC(N)=O
Lookup: Kindly identify which of I and II has the larger recorded inhibition value. When you have decided, please share the label of that item.
Found: II
(II: 9.3%, I: 5.9%)
